tested on: Escherichia coli (ATCC25922) or Staphylococcus aureus (ATCC25923); experiment: Antibacterial MIC, microdilution method in Mueller-Hinton medium; assay type: cell-based; conditions: Escherichia coli, 18 h, read-out: Potency (MIC)
Give measured MIC for each item. Keep answers brief.

Check out these entries, answers already filled in.
smiles_repr=N[C@@H]1C[C@H](N)CN(c2nc(Nc3ccc(NC(=O)c4c(O)ccc5ccccc45)c(O)c3)nc(N3C[C@H](N)C[C@H](N)C3)n2)C1 measurement_target="Escherichia coli (ATCC25922) or Staphylococcus aureus (ATCC25923)" observed_measurement="< 16 µg/mL"
smiles_repr=CC(=O)c1ccc(Nc2nc(N3C[C@H](N)C[C@H](N)C3)nc(N3C[C@@H](N)[C@@H](N)C3)n2)cc1 measurement_target="Escherichia coli (ATCC25922) or Staphylococcus aureus (ATCC25923)" observed_measurement="> 64 µg/mL"
smiles_repr=NC[C@@H]1CN(c2nc(Nc3ccc4c(c3)-c3ccccc3C4=O)nc(N3C[C@H](N)C[C@H](N)C3)n2)CC[C@@H]1O measurement_target="Escherichia coli (ATCC25922) or Staphylococcus aureus (ATCC25923)" observed_measurement="> 64 µg/mL"

Hi! Can you tell me MIC for each of these molecules?
1. Cc1cc(Nc2nc(N3C[C@H](N)C[C@H](N)C3)nc(N3C[C@H](N)C[C@H](N)C3)n2)ccc1NC(=O)c1cccc([N+](=O)[O-])c1O
2. N[C@@H]1C[C@H](N)CN(c2nc(Nc3ccc(NC(=O)c4ccc(F)c(F)c4O)cc3)nc(N3C[C@H](N)C[C@H](N)C3)n2)C1
3. Cc1cc(=O)oc2cc(NC(=O)c3ccc(Nc4nc(N5C[C@H](N)C[C@H](N)C5)nc(N5C[C@H](N)C[C@H](N)C5)n4)cc3O)ccc12
4. CCN(CC)CCNC(=O)c1ccc(Nc2nc(N3C[C@H](N)C[C@H](N)C3)nc(N3C[C@H](N)C[C@H](N)C3)n2)cc1

["< 64 µg/mL", "< 64 µg/mL", "< 16 µg/mL", "< 64 µg/mL"]

====

test system: Escherichia coli (ATCC25922) or Staphylococcus aureus (ATCC25923); experiment: Antibacterial MIC, microdilution method in Mueller-Hinton medium; assay type: cell-based; settings: Escherichia coli, 18 h, read-out: Potency (MIC)
Give measured MIC for each item. Keep answers brief.

Check out these entries, answers already filled in.
smiles_repr=N[C@@H]1C[C@H](N)CN(c2nc(Nc3ccc(NC(=O)c4ccc(Cl)cc4O)c(F)c3)nc(N3C[C@H](N)C[C@H](N)C3)n2)C1 measurement_name=MIC observed_measurement="< 16 µg/mL"
smiles_repr=N[C@@H]1C[C@H](N)CN(c2nc(Nc3ccc(NC(=O)c4ccc(Cl)cc4)c(O)c3)nc(N3CCN(c4ccncc4)CC3)n2)C1 measurement_name=MIC observed_measurement="< 64 µg/mL"
smiles_repr=Cc1cc(=O)oc2cc(Nc3nc(N4C[C@H](N)C[C@H](N)C4)nc(N4CC[C@H](O)[C@H](CN)C4)n3)ccc12 measurement_name=MIC observed_measurement="> 64 µg/mL"
smiles_repr=Nc1cccc(NC(=O)CC(=O)c2ccc(Nc3nc(N4C[C@H](N)C[C@H](N)C4)nc(N4C[C@H](N)C[C@H](N)C4)n3)cc2)c1 measurement_name=MIC observed_measurement="> 64 µg/mL"
smiles_repr=N[C@@H]1C[C@H](N)CN(c2nc(Nc3ccc(NC(=O)c4ccc(Cl)cc4)c(O)c3)nc(N3C[C@H](N)C[C@H](N)C3)n2)C1 measurement_name=MIC observed_measurement="< 16 µg/mL"
smiles_repr=N[C@@H]1C[C@H](N)CN(c2nc(Nc3ccc4c(c3)-c3ccccc3C4=O)nc(N3C[C@@H](N)[C@@H](N)C3)n2)C1 measurement_name=MIC observed_measurement="< 64 µg/mL"
smiles_repr=NC[C@@H]1C[C@H](N)CN1c1nc(Nc2ccc(C(=O)Oc3ccccc3)c(O)c2)nc(N2C[C@H](N)C[C@H](N)C2)n1 measurement_name=MIC observed_measurement="< 16 µg/mL"
smiles_repr=N[C@@H]1C[C@H](N)CN(c2nc(Nc3ccc(C(=O)Nc4ccc(F)c(F)c4)c(O)c3)nc(N3C[C@H](N)C[C@H](N)C3)n2)C1 measurement_name=MIC observed_measurement="< 16 µg/mL"

Hi! Can you tell me MIC for each of these compounds?
1. N[C@@H]1C[C@H](N)CN(c2nc(Nc3ccc(NC(=O)c4ccc(Cl)cc4O)c(O)c3)nc(N3C[C@H](N)C[C@H](N)C3)n2)C1
2. N[C@@H]1C[C@H](N)CN(c2nc(Nc3cc(Cl)c(NC(=O)c4ccc(Cl)cc4O)c(Cl)c3)nc(N3C[C@H](N)C[C@H](N)C3)n2)C1
3. Cc1cc(Nc2nc(N3C[C@H](N)C[C@H](N)C3)nc(N3C[C@H](N)C[C@H](N)C3)n2)ccc1NC(=O)c1ccc(Cl)cc1O
4. CN(C)c1ccc(C(=O)Nc2ccc(Nc3nc(N4C[C@H](N)C[C@H](N)C4)nc(N4C[C@H](N)C[C@H](N)C4)n3)cc2O)c(O)c1
5. N[C@@H]1C[C@H](N)CN(c2nc(NNc3cccc(C(F)(F)F)c3)nc(N3C[C@H](N)C[C@H](N)C3)n2)C1
6. Cc1ccc(S(=O)(=O)N(Cc2ccccc2)c2ccc(Nc3nc(N4C[C@H](N)C[C@H](N)C4)nc(N4C[C@@H](N)[C@@H](N)C4)n3)cc2O)cc1

< 16 µg/mL
< 16 µg/mL
< 16 µg/mL
< 16 µg/mL
< 64 µg/mL
< 16 µg/mL

Hi! Can you tell me MIC for each of these compounds?
1. N[C@@H]1C[C@H](N)CN(c2nc(Nc3ccc(C(=O)CC(=O)Nc4ccc(F)c(F)c4)cc3)nc(N3C[C@@H](N)C[C@H]3CO)n2)C1
2. N[C@@H]1C[C@H](N)CN(c2nc(Nc3ccc(NC(=O)c4ccc5ccccc5c4O)cc3)nc(N3CCC[C@@H](O)C3)n2)C1
3. Cc1ccc(NNc2nc(N3C[C@H](N)C[C@H](N)C3)nc(N3C[C@H](N)C[C@H](N)C3)n2)cc1
4. N[C@@H]1C[C@H](N)CN(c2nc(Nc3ccc(NC(=O)c4ccc(Cl)cc4)c(O)c3)nc(NC3CCNCC3)n2)C1
5. Cc1c(Cl)cccc1CNc1nc(N2C[C@H](N)C[C@H](N)C2)nc(N2C[C@H](N)C[C@H](N)C2)n1

["< 64 µg/mL", "< 64 µg/mL", "< 64 µg/mL", "< 16 µg/mL", "> 64 µg/mL"]

Hi! Can you tell me MIC for each of these compounds?
1. Cc1ccnc(NS(=O)(=O)c2ccc(Nc3nc(N4C[C@H](N)C[C@H](N)C4)nc(N4C[C@H](N)C[C@H](N)C4)n3)cc2)n1
2. CC(=O)c1ccc(Nc2nc(N3C[C@H](N)C[C@H](N)C3)nc(N3C[C@@H](N)C[C@H]3CN)n2)cc1
3. N[C@@H]1C[C@H](N)CN(c2nc(Nc3ccc(NC(=O)c4cccc(O)c4O)c(O)c3)nc(N3C[C@H](N)C[C@H](N)C3)n2)C1
4. Cc1ccc(S(=O)(=O)N(Cc2ccccc2)c2ccc(Nc3nc(N4C[C@H](N)C[C@H](N)C4)nc(N4CC[C@H](O)[C@H](CN)C4)n3)c(O)c2)cc1
5. N[C@@H]1C[C@H](N)CN(c2nc(Nc3ccc(NC(=O)c4cc(Cl)cnc4O)cc3)nc(N3C[C@H](N)C[C@H](N)C3)n2)C1

["> 64 µg/mL", "> 64 µg/mL", "< 16 µg/mL", "< 64 µg/mL", "< 64 µg/mL"]

Hi! Can you tell me MIC for each of these compounds?
1. Cc1cc(Nc2nc(N3C[C@H](N)C[C@H](N)C3)nc(N3C[C@H](N)C[C@H](N)C3)n2)ccc1NC(=O)c1cccc(C)c1O
2. N[C@@H]1C[C@H](N)CN(c2nc(NNC3=NCCCN3)nc(N3C[C@H](N)C[C@H](N)C3)n2)C1
3. CCn1c2ccccc2c2cc(Nc3nc(N4C[C@H](N)C[C@H](N)C4)nc(N4C[C@H](N)C[C@H](N)C4)n3)ccc21
4. N[C@@H]1C[C@H](N)CN(c2nc3nc(Nc4ccc(NC(=O)c5ccc6ccccc6c5O)cc4)nc(N4C[C@H](N)C[C@H](N)C4)c3[nH]2)C1

1: < 64 µg/mL; 2: > 64 µg/mL; 3: < 64 µg/mL; 4: < 16 µg/mL

These data points were gathered from patent US7223759B2.
